system: Staphylococcus aureus; assay: The compound was evaluated for activity against strain Micrococcus aureus; assay type: functional; parameters: unit not given here
Measured -Log C of individual entries

# compound, -Log C
records = [
    ("COC1/C=C/OC2(C)Oc3c(C)c(O)c4c(O)c(cc(OCC(=O)NC(C)C)c4c3C2=O)NC(=O)/C(C)=C\\C=C\\C(C)C(O)C(C)C(O)C(C)C(OC(C)=O)C1C (stereo not drawn)", 6.7),
    ("COC1/C=C/OC2(C)Oc3c(C)c(O)c4c(O)c(cc(OCC(=O)N5CCCCC5C)c4c3C2=O)NC(=O)/C(C)=C\\C=C\\C(C)C(O)C(C)C(O)C(C)C(OC(C)=O)C1C (stereo not drawn)", 8.22),
]

In the following, a different compound is considered.
Lookup: Could you tell me which -Log C is on file for CCCN(CC)C(=O)COc1cc2c(O)c3c(O)c(C)c4c(c13)C(=O)C(C)(O/C=C/C(OC)C(C)C(OC(C)=O)C(C)C(O)C(C)C(O)C(C)/C=C/C=C(/C)C(=O)N2)O4 (stereo not drawn) ?
Found: 8.01

----------
test system: Trichoderma viride; test: The compound was evaluated for activity against Trichoderma viride; type: functional; parameters: unit not given here
property: -Log C
The reply should be a number, written without any unit.

Take a look at these entries with their results.
# smiles.notation, test.value
rows = [
    ("O=[N+]([O-])c1ccc2cccnc2c1O", 1.28),
    ("Oc1c(Br)ccc2cccnc12", 2.35),
    ("O=[N+]([O-])c1cc(I)c2cccnc2c1O", 0.89),
    ("O=[N+]([O-])c1cc(F)c(O)c2ncccc12", 1.32),
    ("Oc1c(F)cc(I)c2cccnc12", 2),
]

Lookup: State its -Log C on Trichoderma viride: Oc1c(I)cc(Br)c2cccnc12
Found: 1.96

Lookup: Now try Oc1c(F)cc(Cl)c2cccnc12 .
Found: 2.29

Lookup: Now the compound O=[N+]([O-])c1cc(F)c2cccnc2c1O
Found: 1.06

----------
Recorded -Log C by entry
test system: Staphylococcus aureus; experiment: The compound was evaluated for activity against strain Micrococcus aureus; format: functional; set-up: unit not given here
Output spec: single numeric token, no unit.

Here are 5 compounds together with their reported answers.
# compound, -Log C
data = [
    ("COC1/C=C/OC2(C)Oc3c(C)c(O)c4c(O)c(cc(OCC(=O)N(C)C5CCCC5)c4c3C2=O)NC(=O)/C(C)=C\\C=C\\C(C)C(O)C(C)C(O)C(C)C(OC(C)=O)C1C (stereo unspecified)", 8.14),
    ("COC1/C=C/OC2(C)Oc3c(C)c(O)c4c(O)c(cc(OCC(=O)N5CCOCC5)c4c3C2=O)NC(=O)/C(C)=C\\C=C\\C(C)C(O)C(C)C(O)C(C)C(OC(C)=O)C1C (stereo unspecified)", 6.44),
    ("COC1/C=C/OC2(C)Oc3c(C)c(O)c4c(O)c(cc(OCC(=O)N(C)C)c4c3C2=O)NC(=O)/C(C)=C\\C=C\\C(C)C(O)C(C)C(O)C(C)C(OC(C)=O)C1C (stereo unspecified)", 7.12),
    ("COC1/C=C/OC2(C)Oc3c(C)c(O)c4c(O)c(cc(OCC(=O)N5CCCCC5)c4c3C2=O)NC(=O)/C(C)=C\\C=C\\C(C)C(O)C(C)C(O)C(C)C(OC(C)=O)C1C (stereo unspecified)", 8.01),
    ("COC1/C=C/OC2(C)Oc3c(C)c(O)c4c(O)c(cc(OCC(=O)NC(C)(C)C)c4c3C2=O)NC(=O)/C(C)=C\\C=C\\C(C)C(O)C(C)C(O)C(C)C(OC(C)=O)C1C (stereo unspecified)", 6.73),
]

Lookup: Which -Log C reading was recorded for the compound CCNC(=O)COc1cc2c(O)c3c(O)c(C)c4c(c13)C(=O)C(C)(O/C=C/C(OC)C(C)C(OC(C)=O)C(C)C(O)C(C)C(O)C(C)/C=C/C=C(/C)C(=O)N2)O4 (stereo unspecified) ?
Found: 6.99

Lookup: And the next one, CCN(C(=O)COc1cc2c(O)c3c(O)c(C)c4c(c13)C(=O)C(C)(O/C=C/C(OC)C(C)C(OC(C)=O)C(C)C(O)C(C)C(O)C(C)/C=C/C=C(/C)C(=O)N2)O4)c1ccccc1 (stereo unspecified) ?
Found: 8.46

----------
test: -Log C was determined by performing the foot shock test; assay type: ADME; parameters: unit not given here
Label rule met when -Log C is strictly below 0.8; otherwise label rule not met.

# smiles.notation, label
rows = [
    ("O=C1CN=C(c2ccccc2)c2cc(C(F)(F)F)ccc2N1", "rule not met"),
    ("CC(C)(C)N1C(=O)CN=C(c2ccccc2)c2cc(Cl)ccc21", "rule met"),
    ("CN(C)c1ccc2c(c1)C(c1ccccc1)=NCC(=O)N2C", "rule not met"),
]

Lookup: Hello, is -Log C of the following compound strictly smaller than 0.8? CN(C)c1ccc2c(c1)C(c1ccccc1)=NCC(=O)N2
Found: rule met

Lookup: Now try COc1ccccc1C1=NCC(=O)Nc2ccc(Cl)cc21 .
Found: rule met

Lookup: Can you handle CN1C(=O)CN=C(c2ccccc2)c2cc(C#N)ccc21 next?
Found: rule not met

Lookup: Now the compound CCN1C(=O)CN=C(c2ccccc2)c2cc(Cl)ccc21
Found: rule not met

Lookup: Ok, now Cc1ccc2c(c1)C(c1ccccc1)=NCC(=O)N2
Found: rule met

Lookup: Same thing, different compound: Cc1ccccc1C1=NCC(=O)Nc2ccc(Cl)cc21
Found: rule met

----------
system: Enterococcus faecalis; assay: The compound was evaluated for activity against strain Streptococcus faecalis; format: functional; parameters: unit not given here
Collected -Log C values appear next to each entry.

// worked examples, -Log C included
# compound, -Log C
rows = [
    ("COC1/C=C/OC2(C)Oc3c(C)c(O)c4c(O)c(cc(OCC(=O)NC(C)C)c4c3C2=O)NC(=O)/C(C)=C\\C=C\\C(C)C(O)C(C)C(O)C(C)C(OC(C)=O)C1C (stereo not given)", 5.9),
    ("CCCN(CCC)C(=O)COc1cc2c(O)c3c(O)c(C)c4c(c13)C(=O)C(C)(O/C=C/C(OC)C(C)C(OC(C)=O)C(C)C(O)C(C)C(O)C(C)/C=C/C=C(/C)C(=O)N2)O4 (stereo not given)", 7.15),
    ("COC1/C=C/OC2(C)Oc3c(C)c(O)c4c(O)c(cc(OCC(=O)N5CCOCC5C)c4c3C2=O)NC(=O)/C(C)=C\\C=C\\C(C)C(O)C(C)C(O)C(C)C(OC(C)=O)C1C (stereo not given)", 6.22),
    ("COC1/C=C/OC2(C)Oc3c(C)c(O)c4c(O)c(cc(OCC(=O)N(C)C)c4c3C2=O)NC(=O)/C(C)=C\\C=C\\C(C)C(O)C(C)C(O)C(C)C(OC(C)=O)C1C (stereo not given)", 6.02),
]

Let's switch to this compound now.
Lookup: So what does the record say about -Log C for COC1/C=C/OC2(C)Oc3c(C)c(O)c4c(O)c(cc(OCC(=O)N(c5ccccc5)c5ccccc5)c4c3C2=O)NC(=O)/C(C)=C\C=C\C(C)C(O)C(C)C(O)C(C)C(OC(C)=O)C1C (stereo not given) ?
Found: 7.65

----------
assay: -Log C was determined by performing the maximum electroshock test; assay type: ADME; design: unit not given here
property: -Log C
Answer using only a numeral; do not append any unit.

# smiles.notation, property, test.value
records = [
    ("CN1C(=O)CN=C(c2ccccc2)c2cc(C#N)ccc21", "-Log C", 1.29),
]

Lookup: Bench note: what -Log C did N#Cc1ccc2c(c1)C(c1ccccc1)=NCC(=O)N2 show?
Found: 0.89

Lookup: Note, next up: COc1ccccc1C1=NCC(=O)Nc2ccc(Cl)cc21
Found: 1

Lookup: Likewise for Cc1ccc2c(c1)C(c1ccccc1)=NCC(=O)N2 ?
Found: 1.75

----------
system: Enterococcus faecalis; assay: The compound was evaluated for activity against strain Streptococcus faecalis; assay type: functional; set-up: unit not given here
Each record is given TRUE if its reported -Log C is strictly below 7. Records at or above 7 are given FALSE.

Lookup: # check: -Log C < 7 for COC1/C=C/OC2(C)Oc3c(C)c(O)c4c(O)c(cc(OCC(=O)N(CC(C)C)CC(C)C)c4c3C2=O)NC(=O)/C(C)=C\C=C\C(C)C(O)C(C)C(O)C(C)C(OC(C)=O)C1C (configuration not stated)
Found: FALSE

----------
test: -Log C was determined by performing the incl screen test; type: ADME; parameters: unit not given here
Rule: label 1 for -Log C not less than 0.3, label 0 for anything less.

# smiles.notation, label
measured = [
    ("O=C1CN=C(c2ccccc2)c2cc(C(F)(F)F)ccc2N1", "label 1"),
]

Lookup: Has CN1C(=O)CN=C(c2ccccc2)c2cc(C#N)ccc21 a recorded -Log C greater than or equal to 0.3?
Found: label 1

Lookup: And for COc1ccccc1C1=NCC(=O)Nc2ccc(Cl)cc21 ?
Found: label 0

Lookup: Query CN(C)c1ccc2c(c1)C(c1ccccc1)=NCC(=O)N2 next
Found: label 0

Lookup: Try CCN1C(=O)CN=C(c2ccccc2)c2cc(Cl)ccc21 next.
Found: label 1

Lookup: Follow-up item: CC(C)(C)N1C(=O)CN=C(c2ccccc2)c2cc(Cl)ccc21
Found: label 0

Lookup: Also N#Cc1ccc2c(c1)C(c1ccccc1)=NCC(=O)N2 ?
Found: label 1

Lookup: Also, Cc1ccc2c(c1)C(c1ccccc1)=NCC(=O)N2 please.
Found: label 1

Lookup: Next record, please: CN(C)c1ccc2c(c1)C(c1ccccc1)=NCC(=O)N2C
Found: label 0

Lookup: Would you kindly repeat that for Cc1ccccc1C1=NCC(=O)Nc2ccc(Cl)cc21 ?
Found: label 0
